Numbers sourced from the supplement of paper PMC7877785.

- experimental details: self-splicing fitness, log relative to wild type (ln ratio); higher = more splicing; Tetrahymena group I intron in knt gene, E. coli kanamycin selection, DiMSum; sequences stand for … in CUCUCU…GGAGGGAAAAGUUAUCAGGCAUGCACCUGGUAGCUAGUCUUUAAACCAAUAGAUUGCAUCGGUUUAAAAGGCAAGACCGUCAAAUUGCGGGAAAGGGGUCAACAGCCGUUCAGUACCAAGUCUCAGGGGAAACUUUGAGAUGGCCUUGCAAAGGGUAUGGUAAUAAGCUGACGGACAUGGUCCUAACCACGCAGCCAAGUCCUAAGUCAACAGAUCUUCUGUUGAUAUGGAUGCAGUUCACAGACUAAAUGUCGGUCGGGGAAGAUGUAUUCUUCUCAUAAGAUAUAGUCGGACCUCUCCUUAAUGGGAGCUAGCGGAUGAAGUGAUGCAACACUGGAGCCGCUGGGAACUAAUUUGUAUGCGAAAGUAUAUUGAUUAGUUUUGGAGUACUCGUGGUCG;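 also: selection with 25 µg/mL kanamycin versus none on LB agar overnight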
- test context: 30 °C
Assignment: determine reported self-splicing fitness (ln) for the given sequences.
One number for each entry.

Study these solved cases before continuing.
biopolymer sequence: UUCUAGCAAUAUUACGUCCA
self-splicing fitness (ln): -2.13
//
biopolymer sequence: UUUUAGCAAUAUUACGAUAG
self-splicing fitness (ln): -0.792
//
biopolymer sequence: AUUGAGCAAUAUUACGCGAU
self-splicing fitness (ln): -3.68

// input: 4 sequences below; output: self-splicing fitness (ln) for each
1. AAGUAGCAAUAUUACGGCCA
2. CCUAAGCAAUAUUACGUGUG
3. CACAAGCAAUAUUACGGUCG
4. GUAUAGCAAUAUUACGGGCA

Solution:
1. -0.679
2. -1.83
3. 0.139
4. -1.34

====

- experimental details: self-splicing fitness, log relative to wild type (ln ratio); higher = more splicing; Tetrahymena group I intron in knt gene, E. coli kanamycin selection, DiMSum; sequences stand for … in CUCUCU…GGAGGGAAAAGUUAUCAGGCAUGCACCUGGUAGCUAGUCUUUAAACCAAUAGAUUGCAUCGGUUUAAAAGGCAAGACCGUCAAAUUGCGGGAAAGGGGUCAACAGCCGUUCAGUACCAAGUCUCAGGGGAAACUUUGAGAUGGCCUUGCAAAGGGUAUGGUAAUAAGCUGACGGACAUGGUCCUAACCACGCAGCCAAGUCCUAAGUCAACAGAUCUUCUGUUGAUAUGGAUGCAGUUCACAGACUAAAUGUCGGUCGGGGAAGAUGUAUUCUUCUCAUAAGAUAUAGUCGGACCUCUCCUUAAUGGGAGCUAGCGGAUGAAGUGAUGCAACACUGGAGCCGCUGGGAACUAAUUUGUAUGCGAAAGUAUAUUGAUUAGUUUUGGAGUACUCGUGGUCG
- test context: 37 °C
measured endpoint: self-splicing fitness (ln)
One number for each entry.

Study these solved cases before continuing.
biopolymer sequence: UUCUAGCAAUAUUACGCACU
self-splicing fitness (ln): -1.69
//
biopolymer sequence: CCAUAGCAAUAUUACGCCAG
self-splicing fitness (ln): -0.423
//
biopolymer sequence: CUGCAGCAAUAUUACGGCUG
self-splicing fitness (ln): -1.52

// input: 4 sequences below; output: self-splicing fitness (ln) for each
1. AGCAAGCAAUAUUACGGGGG
2. CGCCAGCAAUAUUACGAACG
3. CAUAAGCAAUAUUACGGUGA
4. GUACAGCAAUAUUACGUCCU

Solution:
[-2.45, 0.0565, -2.36, -0.91]

// input: 7 sequences below; output: self-splicing fitness (ln) for each
1. AACCAGCAAUAUUACGGAAA
2. CUUCAGCAAUAUUACGUUCG
3. AGGCAGCAAUAUUACGAGAA
4. UACAAGCAAUAUUACGGAUG
5. AACUAGCAAUAUUACGAAUC
6. AGCAAGCAAUAUUACGUAAG
7. UACGAGCAAUAUUACGAGGA

Solution:
-0.275
-0.372
-2.09
-0.694
-1.27
-0.897
-2.48

// input: 7 sequences below; output: self-splicing fitness (ln) for each
1. GACGAGCAAUAUUACGUGGA
2. UCGAAGCAAUAUUACGCUAG
3. AUCGAGCAAUAUUACGUACG
4. GCUAAGCAAUAUUACGAGAC
5. UCUUAGCAAUAUUACGCGGC
6. AGGAAGCAAUAUUACGGGGA
7. GCUAAGCAAUAUUACGGAAA

Solution:
-2.92
-0.234
-2.07
-0.763
-0.722
-2.38
-2.28

// input: 7 sequences below; output: self-splicing fitness (ln) for each
1. GGCUAGCAAUAUUACGUUGC
2. GCUUAGCAAUAUUACGCGAG
3. AGGGAGCAAUAUUACGAUAU
4. UGACAGCAAUAUUACGACCA
5. CGGAAGCAAUAUUACGACCG
6. GGUGAGCAAUAUUACGAGCG
7. GUGCAGCAAUAUUACGGAUA

Solution:
-1.38
-2.56
-1.88
0.216
-2.26
0.303
-1.79

// input: 3 sequences below; output: self-splicing fitness (ln) for each
1. UCUUAGCAAUAUUACGAGAG
2. AGCUAGCAAUAUUACGCGGU
3. AUGCAGCAAUAUUACGGGUG

Solution:
1: -0.861; 2: -1.71; 3: -1.62

// input: 7 sequences below; output: self-splicing fitness (ln) for each
1. ACUAAGCAAUAUUACGAUCC
2. AGUAAGCAAUAUUACGGCUC
3. GCCGAGCAAUAUUACGUAAU
4. UCAGAGCAAUAUUACGUGAC
5. GCGCAGCAAUAUUACGAGGU
6. ACAUAGCAAUAUUACGGGUU
7. CCGCAGCAAUAUUACGUGAC

Solution:
1. -0.609
2. -1.79
3. -0.203
4. -1.9
5. -1.24
6. -1.77
7. -1.96

// input: 5 sequences below; output: self-splicing fitness (ln) for each
1. UCCGAGCAAUAUUACGCGCA
2. UCCCAGCAAUAUUACGACCG
3. ACAAAGCAAUAUUACGAACA
4. CCGCAGCAAUAUUACGCCAC
5. CCACAGCAAUAUUACGAGGU

Solution:
1: -0.252; 2: -3.01; 3: -0.578; 4: -1.81; 5: -2.81

Problem: So what's the measured self-splicing fitness (ln) for this one? `CUGAAGCAAUAUUACGUCAA`
Solution: -0.435
